# target-system: Serine/threonine-protein kinase PAK 4 (Homo sapiens); further: in the data inactive means no Kd found up to 30 µM
# Sequence (O96013 whole entry): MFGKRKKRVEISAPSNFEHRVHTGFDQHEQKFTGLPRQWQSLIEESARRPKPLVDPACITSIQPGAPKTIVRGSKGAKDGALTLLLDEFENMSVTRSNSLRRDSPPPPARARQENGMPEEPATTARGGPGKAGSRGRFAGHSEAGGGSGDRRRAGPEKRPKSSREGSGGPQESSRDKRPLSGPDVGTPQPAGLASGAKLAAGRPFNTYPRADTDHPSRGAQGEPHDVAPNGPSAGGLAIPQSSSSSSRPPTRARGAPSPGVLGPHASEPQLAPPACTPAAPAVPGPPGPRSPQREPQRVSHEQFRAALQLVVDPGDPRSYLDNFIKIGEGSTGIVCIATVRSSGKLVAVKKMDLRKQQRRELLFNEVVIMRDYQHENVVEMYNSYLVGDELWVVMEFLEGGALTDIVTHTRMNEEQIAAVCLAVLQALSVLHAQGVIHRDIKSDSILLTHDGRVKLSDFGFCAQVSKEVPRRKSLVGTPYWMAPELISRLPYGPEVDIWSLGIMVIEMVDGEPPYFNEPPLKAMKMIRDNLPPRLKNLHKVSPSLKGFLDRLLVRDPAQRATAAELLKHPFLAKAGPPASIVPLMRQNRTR
Activity calls are given as the source filed them.
Outcomes: active, inactive

{"compound": "O=c1[nH]c([C@@H]2CCCN2)nc2c1oc1ccc(Cl)cc12", "assigned-label": "inactive"}
{"compound": "CC(C)CC(=O)Nc1[nH]nc2c1CN(C(=O)C1CCN(C)CC1)C2(C)C", "assigned-label": "active"}
{"compound": "C=CC(=O)Nc1cccc(Nc2nc(Nc3ccc(N4CCN(C(C)=O)CC4)cc3OC)ncc2C(F)(F)F)c1", "assigned-label": "inactive"}
{"compound": "Cc1c(NC(=O)OC[C@@H]2COCCN2)cn2ncnc(Nc3ccc4c(cnn4Cc4cccc(F)c4)c3)c12", "assigned-label": "inactive"}
{"compound": "COc1cc2nccc(Oc3ccc(NC(=O)C4(C(=O)Nc5ccc(F)cc5)CC4)cc3)c2cc1OC [CABOZANTINIB]", "assigned-label": "inactive"}
{"compound": "O=C(O)c1ccc2c(c1)nc(Nc1cccc(Cl)c1)c1ccncc12", "assigned-label": "inactive"}
{"compound": "COc1cc2ncnc(Nc3ccc(F)c(Cl)c3)c2cc1NC(=O)/C=C/CN1CCCCC1 [DACOMITINIB ANHYDROUS]", "assigned-label": "inactive"}
{"compound": "O[C@H]1CC[C@H](Nc2ncc3nc(Nc4c(F)cc(F)cc4F)n([C@H]4CCOC4)c3n2)CC1", "assigned-label": "inactive"}
{"compound": "CCc1nc(C(N)=O)c(Nc2ccc(N3CCC(N4CCN(C)CC4)CC3)c(OC)c2)nc1NC1CCOCC1", "assigned-label": "inactive"}
{"compound": "Cc1ccc(C(=O)Nc2ccc(Oc3cc4cnn(C)c4cc3-c3cn[nH]c3)c(F)c2)c(=O)n1-c1ccc(F)cc1", "assigned-label": "inactive"}
{"compound": "Cn1cc(-c2[nH]c3cc(NC(=O)[C@H](N)C4CCCCC4)cc4c3c2C=NNC4=O)cn1", "assigned-label": "active"}

###

# target-system: MAP/microtubule affinity-regulating kinase 3 (Homo sapiens, UniProt P27448); further: in the data inactive means no Kd found up to 30 µM
# Sequence (P27448 whole entry): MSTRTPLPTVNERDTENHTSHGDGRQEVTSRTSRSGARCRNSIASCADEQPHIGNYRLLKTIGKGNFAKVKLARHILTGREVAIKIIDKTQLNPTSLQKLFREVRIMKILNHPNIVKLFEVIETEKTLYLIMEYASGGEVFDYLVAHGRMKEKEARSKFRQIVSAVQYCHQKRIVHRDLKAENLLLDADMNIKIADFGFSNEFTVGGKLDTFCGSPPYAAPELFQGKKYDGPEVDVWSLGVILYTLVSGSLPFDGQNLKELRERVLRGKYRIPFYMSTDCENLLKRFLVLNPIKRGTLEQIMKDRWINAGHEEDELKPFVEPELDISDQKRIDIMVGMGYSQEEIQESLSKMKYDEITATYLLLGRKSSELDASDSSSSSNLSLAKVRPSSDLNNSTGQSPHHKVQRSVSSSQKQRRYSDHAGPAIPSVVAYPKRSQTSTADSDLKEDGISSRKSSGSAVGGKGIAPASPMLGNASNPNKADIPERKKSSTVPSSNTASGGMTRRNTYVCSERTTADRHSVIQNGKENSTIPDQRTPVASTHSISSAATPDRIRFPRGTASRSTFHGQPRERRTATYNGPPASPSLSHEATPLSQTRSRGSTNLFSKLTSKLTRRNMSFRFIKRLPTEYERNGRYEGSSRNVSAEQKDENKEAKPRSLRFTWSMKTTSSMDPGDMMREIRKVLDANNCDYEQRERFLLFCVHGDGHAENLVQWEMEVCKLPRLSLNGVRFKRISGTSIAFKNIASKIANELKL
Active and inactive are the calls of the source.
Outcomes: active, inactive

{"molecule-smiles": "CC[C@@](C)(Nc1ccnc(-c2c[nH]c3ncccc23)n1)C(=O)NCC(F)(F)F", "assigned-label": "active"}
{"molecule-smiles": "COc1cccc2cc(-c3nc([C@H]4CC[C@H](C(=O)O)CC4)n4ncnc(N)c34)[nH]c12", "assigned-label": "inactive"}
{"molecule-smiles": "Cc1c(Cn2c(C)nc3c(C(=O)O)cc(N4CCOCC4)cc32)cccc1C(F)(F)F", "assigned-label": "inactive"}
{"molecule-smiles": "Cn1cc(-c2[nH]c3cc(NC(=O)[C@H](N)C4CCCCC4)cc4c3c2C=NNC4=O)cn1", "assigned-label": "active"}
{"molecule-smiles": "Cc1c(NC(=O)OC[C@@H]2COCCN2)cn2ncnc(Nc3ccc4c(cnn4Cc4cccc(F)c4)c3)c12", "assigned-label": "inactive"}

###

Active and inactive are the calls of the source.
These molecules were tested on Cyclin-dependent kinase 1 (Homo sapiens, UniProt P06493); Kd is the recorded read-out. Further: in the data inactive means no Kd found up to 30 µM.
Sequence (P06493 whole entry): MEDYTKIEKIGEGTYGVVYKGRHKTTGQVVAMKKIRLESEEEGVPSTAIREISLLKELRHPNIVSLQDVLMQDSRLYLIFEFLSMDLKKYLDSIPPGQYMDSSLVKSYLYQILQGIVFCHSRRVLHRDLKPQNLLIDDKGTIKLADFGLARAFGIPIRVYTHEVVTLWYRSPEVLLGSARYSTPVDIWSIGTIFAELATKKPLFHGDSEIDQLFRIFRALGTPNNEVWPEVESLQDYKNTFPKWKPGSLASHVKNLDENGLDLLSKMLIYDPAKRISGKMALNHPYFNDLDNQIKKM

{"molecule-smiles": "COc1ccc2c(OCc3nnc4ccc(-c5ccccc5)nn34)ccnc2c1", "Kd": "> 30 µM (inactive)"}
{"molecule-smiles": "CCN(CCCOc1ccc2c(Nc3cc(CC(=O)Nc4cccc(F)c4)n[nH]3)ncnc2c1)CCOP(=O)(O)O", "Kd": "> 30 µM (inactive)"}
{"molecule-smiles": "O=C(NC[C@H](O)CO)c1ccncc1Nc1ccc(I)cc1F", "Kd": "> 30 µM (inactive)"}
{"molecule-smiles": "COCCN1CCN(Cc2ccc(-c3n[nH]c4c3C(=O)c3c(NC(=O)NN5CCOCC5)cccc3-4)cc2)CC1", "Kd": "1.34 µM (active)"}
{"molecule-smiles": "O[C@H]1CC[C@H](Nc2ncc3nc(Nc4c(F)cc(F)cc4F)n([C@H]4CCOC4)c3n2)CC1", "Kd": "> 30 µM (inactive)"}
